Cited source: PubChem BioAssay

Test: viability profiling in RPMI8226 myeloma cells – cell-based, resazurin fluorescence, basal, 24 h, PK04 Diversity Set, profiling panel (AID 1180);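 further: RPMI8826 multiple myeloma cell line at 5000 cells per well; test concentration not given here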
Conditions: higher = more signal
measurement.label: z-score
The reply should be a number, written without any unit.

Query (compound): C=C(CCCC)C(=O)CC[C@H](OC(=O)c1cccnc1)c1ccc(OCCO)cc1 ; field requested: z-score
-3.01

Query (compound): CN1CCC(CCCO)=CC1c1cccs1 (stereo not given) ; field requested: z-score
-0.707

Query (compound): O=C(NC1CC1)[C@@H]1c2ccccc2C(=O)N(Cc2cc(F)cc(C(F)(F)F)c2)[C@H]1c1ccc(CO)cc1 ; field requested: z-score
-0.0559

Query (compound): CCCCCCc1nc(-c2ccc(-c3ccc(Cl)c(Cl)c3)o2)cc2c1[Si](C(C)C)(C(C)C)O[C@H]2c1ccccc1 ; field requested: z-score
0.0719

Query (compound): COc1ccc(C(O)C2C=CC3C(=O)N(C)C(=O)C3N2NC(=O)OC(C)(C)C)c2ccccc12 (stereo not given) ; field requested: z-score
-0.993

Query (compound): C#CCN1[C@H](/C=C/C2CC2)[C@H](Cc2ccccc2)OC(=O)[C@@H]1Cc1ccccc1 ; field requested: z-score
0.454

Query (compound): O=C1NC(=O)C2C1C=CC(C(O)C=Cc1ccc([N+](=O)[O-])cc1)N2Nc1ccc(Cl)cc1Cl (stereo not given) ; field requested: z-score
-0.615

Query (compound): O=C1C[C@@](C(=O)NCc2ccccc2)(c2ccc([N+](=O)[O-])cc2)[C@@H](c2ccc(CO)cc2)N1CC12CC3CC(CC(C3)C1)C2 ; field requested: z-score
-4.75

Query (compound): Cc1ccc([C@H]2C(C(=O)O)=CCN2S(=O)(=O)c2ccc(C)cc2)cc1 ; field requested: z-score
-0.325

---

Biological target: Carbonic anhydrase 2 (Homo sapiens) (UniProt P00918)
Assay: compounds binding carbonic anhydrase 2 – biochemical, small-molecule microarray, Alexa647-labelled CAII, profiling panel (AID 1122)
Settings: CAII-A647 binding fluorescence, higher = more signal
Catalogue of composite z-score readings, one per entry.
The reply should be a number, written without any unit.

Worked cases, answers included:
compound	target.system	measurement.label	numeric.value
COCCOC(=O)N1C(=O)[C@@]2(c3cc(C#CC4(O)CCCCCC4)ccc31)[C@H](c1ccccc1OCCO)N1[C@H](c3ccccc3)[C@H](c3ccccc3)OC(=O)[C@H]1[C@@H]2C(=O)N1CCc2cc(OC)c(OC)cc2C1	Carbonic anhydrase 2 (Homo sapiens) (UniProt P00918)	composite z-score	0.527
O=C1N(CCS(=O)(=O)c2ccccc2)c2ccccc2[C@@H]2OC(c3ccc(OCCCO)cc3)=N[C@]12Cc1ccccc1	Carbonic anhydrase 2 (Homo sapiens) (UniProt P00918)	composite z-score	0.391
CC(C)C(=C=CC[C@H](O)c1ccc(CO)o1)CCO	Carbonic anhydrase 2 (Homo sapiens) (UniProt P00918)	composite z-score	0.756

Now consider the entry below.
Query (compound): CN1C(=O)C2C=CC(C(O)C=Cc3ccc([N+](=O)[O-])cc3)N(Nc3ccccc3)C2C1=O (centres undefined) ; field requested: composite z-score
0.624

---

Catalogue of z-score readings, one per entry.
Experiment: JC-1 mitochondrial signal, unstimulated MM1S myeloma – cell-based, JC-1 fluorescence, 24 h, 100 nL compound, profiling panel (AID 1170); further: test concentration not given here
Conditions: MM1S mitochondrial potential, higher = more signal
The reply should be a number, written without any unit.

compound	z-score
CCOC(=O)C1=CC[C@@H](c2ccc(C(F)(F)F)cc2)N(S(=O)(=O)c2ccc(C)cc2)[C@H]1c1ccccc1	-3.18
O=C1NC(=O)C2C1C=CC(C(O)C1CC=CCC1)N2Nc1ccccn1 (centres undefined)	-0.642
COc1cc(OC)c(C(O)C2C=CC3C(=O)NC(=O)C3N2Nc2ccccn2)cc1Br (centres undefined)	0.171

Query (compound): COc1ccc([Si](C)(C)[C@H]2[C@H](CC(=O)N3CCC[C@H]3CO)O[C@@]3(C(=O)N(Cc4cccc(N5CCOC5=O)c4)c4ccccc43)[C@@H]2C)cc1 ; field requested: z-score
-0.0702

---

Target: Carbonic anhydrase 2 (Homo sapiens) (UniProt P00918)
Assay: compounds binding carbonic anhydrase 2 – biochemical, small-molecule microarray, Alexa647-labelled CAII, profiling panel (AID 1122)
Settings: CAII-A647 binding fluorescence, higher = more signal
Classify as follows. Reported composite z-score greater than or equal to 0.6: true (1). Reported composite z-score below: false (0).

These recorded examples may help you get a feel for the data.
compound	category.label
Cc1ccc(/C=C/C=O)cc1	false (0)
C=CCOC(=O)[C@H]1[C@@H]2C(=O)O[C@@H](c3ccccc3)[C@@H](c3ccccc3)N2[C@@H](c2ccc(OCCOC(=O)[C@H]3C[C@H]4C(=O)N[C@@H](CCCCN(C)C)C(=O)N4[C@H]3c3cccc(OCCO)c3)cc2)[C@]12C(=O)Nc1ccc(I)cc12	false (0)

Is composite z-score at least 0.6? Consider CCN(CC)c1ccc(N2CC=CC34O[C@@H]5C=CCOC(=O)[C@@H]5[C@H]3C(=O)N(CCCCCCO)[C@@H]4C2=O)cc1 (stereo partly specified)
true (1)

Is composite z-score at least 0.6? Consider [N-]=[N+]=Nc1ccccc1C[C@]1(C(=O)NCc2ccccc2)N=C(c2ccc(OCCCO)cc2)O[C@H]1c1ccccc1N=[N+]=[N-]
true (1)

Is composite z-score at least 0.6? Consider O=C1NC(=O)C2C1C=CC(C(O)c1ccc(-c3ccccc3)s1)N2Nc1ccc(Cl)cc1Cl (stereo unspecified)
true (1)

Is composite z-score at least 0.6? Consider C=C(/C(=C/C[C@H](OC(=O)c1ccncc1)c1ccc(OCCO)cc1)c1cc(C(=O)OC)ccc1OC)C(C)C
false (0)

Is composite z-score at least 0.6? Consider C=CCC(OC(C)=O)[C@@H]1[C@@H](N(Cc2ccc(-c3cccc(C(F)(F)F)c3)o2)C(=O)Cc2ccc(OC)cc2)c2cc(OCCCO)ccc2N1C(=O)c1ccc2ccccc2c1 (stereo partly specified)
false (0)

---

Catalogue of composite z-score readings, one per entry.
Biological target: Dickkopf-related protein 1 (Homo sapiens)
Assay: small molecules binding DKK1 protein – biochemical, small-molecule microarray, 635 nm fluorescence scan, primary screen (AID 1106);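 further: score merges emission near 667 nm with signal to noise over three replicate slides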
Settings: higher = more signal
The reply should be a number, written without any unit.

Worked cases, answers included:
molecule	numeric.value
COC(=O)C(CC#Cc1ccc2c(c1)[C@]1(C(=O)N2)[C@H](c2ccc(O)cc2)N2[C@H](c3ccccc3)[C@H](c3ccccc3)OC(=O)[C@H]2[C@@H]1C(=O)N1CCN(c2ncccn2)CC1)C(=O)OC	0.0879
C=CC[C@]1(C(=O)NCc2ccccc2)N=C(c2ccc(OCCCO)cc2)O[C@H]1c1ccccc1CN=[N+]=[N-]	0.607
COCCOC(=O)N1C(=O)[C@@]2(c3cc(C#CC4(O)CCCCCC4)ccc31)[C@H](C(=O)Nc1nc3ccccc3s1)[C@H]1C(=O)O[C@H](c3ccccc3)[C@H](c3ccccc3)N1[C@@H]2c1ccccc1OCCO	0.287
CC(C)C(=C=CC[C@H](O)c1ccc(CO)o1)CCO	0.0097
CCCCCCCCCCC(O)C1C=CC2C(=O)NC(=O)C2N1Nc1ccc(Cl)cc1Cl (stereo not given)	-1.04
CCCC[C@@H]1C[C@H]1[C@@H](NC(=O)c1cccnc1)c1ccc(Cl)cc1	-2.48
NC(=O)N1C(=O)C2C(C1=O)C1C=C(CCCO)C2C(C2CC2)N1Cc1cc2c(cc1Br)OCO2 (stereo not given)	-0.891
CCOC(=O)C1=C[C@@H](C(C)C)N(S(=O)(=O)c2ccc(C)cc2)[C@H]1c1ccccc1F	0.336
O=C1[C@H]2C=C(I)[C@H](C[C@@H]2OCCCCO)[C@@]12CO2	0.062
CS(=O)(=O)CCOC(=O)C1=CC(CCCO)=CC(c2ccc(CN3CCCC3)cc2)N(Cc2cccc(OC(F)(F)F)c2)C=C1C(=O)OCCS(C)(=O)=O (stereo not given)	0.468

Please provide the recorded composite z-score for COc1ccc([Si](C)(C)[C@H]2[C@H](CCn3cc([C@H](O)c4ccccc4)nn3)O[C@@]3(C(=O)N(C)c4ccccc43)[C@@H]2C)cc1 , tested on Dickkopf-related protein 1 (Homo sapiens).
-0.529

Please provide the recorded composite z-score for CC(C)[Si](C#C[Si](C(C)C)(C(C)C)C(C)C)(O[C@H](C)c1cn(Cc2ccccc2)nn1)C(C)C , tested on Dickkopf-related protein 1 (Homo sapiens).
0.0811

Please provide the recorded composite z-score for C=CC1c2cc(O)c(OC)cc2CCN1Cc1cccc(OC(F)(F)F)c1 (stereo not given) , tested on Dickkopf-related protein 1 (Homo sapiens).
-0.0102

Please provide the recorded composite z-score for CO[C@H]1O[C@H](CO)[C@@H](OC(=O)Nc2ccccc2)[C@@H]2OC(=O)[C@@H](Cc3ccc4ccccc4c3)C/C=C/C[C@H](Cc3ccc4ccccc4c3)C(=O)O[C@@H]12 , tested on Dickkopf-related protein 1 (Homo sapiens).
-0.112

Please provide the recorded composite z-score for COc1cc2c(cc1O)C(c1cccs1)N(Cc1ccc([N+](=O)[O-])o1)CC2 (stereo not given) , tested on Dickkopf-related protein 1 (Homo sapiens).
-0.466
